# Test protocol: Part 5 NT2: plasma pharmacokinetics, single doses
# Format: in vivo, human
# Condition: human, oral; 5 mg, NT2, plasma, geometric mean, n = 8
Assay readout: Cmax
Record the result as a number with its unit.

Requested field: Cmax. Item: CS(=O)(=O)N[C@H]1CCCN2C(=O)COc3ccccc3C3CCC(CC3)OCC12 (stereo partly shown)
13.4 ng/mL

---

# Test protocol: Part 2 MAD: plasma pharmacokinetics, once daily for 10 days
# Type: in vivo, human
# Condition: human, plasma, oral, 15 mg, Day 10, geometric mean
Assay readout: half-life

Look up half-life: CS(=O)(=O)N[C@H]1CCCN2C(=O)COc3ccccc3C3CCC(CC3)OCC12 (stereo partly shown)
14 h

---

# Test protocol: Part 1 SAD: plasma pharmacokinetics after single oral dose
# Type: in vivo, human
# Condition: human, plasma, oral; 25 mg single dose, geometric mean
Assay readout: half-life
Answer with the value and then the unit.

Quick check: half-life of CS(=O)(=O)N[C@H]1CCCN2C(=O)COc3ccccc3C3CCC(CC3)OCC12 (stereo partly shown) [Compound A] ?
12.5 h

---

# Test protocol: Part 2 MAD: plasma pharmacokinetics, once daily for 10 days
# Format: in vivo, human
# Condition: human, plasma, oral, 8 mg, Day 10, geometric mean; read-out: AUC0-24, ss
Assay readout: AUC(0-t)
I'd appreciate it if you included the unit after the number.

What value of AUC(0-t) has been reported for the following compound? CS(=O)(=O)N[C@H]1CCCN2C(=O)COc3ccccc3C3CCC(CC3)OCC12 (stereo partly shown)
141 ng·h/mL

---

# Test protocol: Part 5 NT2: plasma pharmacokinetics, single doses
# Format: in vivo, human
# Condition: human, plasma, oral, 5 mg, NT2, plasma, median, n = 8; read-out: Tmax
Assay readout: Tmax
Report the figure along with its unit, number first.

Record request: Tmax value, item CS(=O)(=O)N[C@H]1CCCN2C(=O)COc3ccccc3C3CCC(CC3)OCC12 (stereo partly shown)
1.75 h

---

# Test protocol: Oral PK of micronized Compound A, powder-in-capsule vs tablet, two particle sizes
# Format: in vivo, male Beagle dogs
# Condition: male, Beagle, plasma, dog, 20 mg PIC and 4 tablets of 5 mg, 12 and 32 micron Dv90, read-out: terminal t1/2 (converted)
Assay readout: half-life

Recorded half-life for CS(=O)(=O)N[C@H]1CCCN2C(=O)COc3ccccc3C3CCC(CC3)OCC12 (stereo partly shown) [Compound A] , please?
~3 h

---

# Test protocol: Part 6 IH: plasma pharmacokinetics, single doses
# Type: in vivo, human
# Condition: human, oral; 12 mg, IH, plasma, geometric mean, n = 7
Assay readout: Cmax (ng/mL)
All answers are understood in ng/mL, so give the number only.

// Cmax lookup, key: CS(=O)(=O)N[C@H]1CCCN2C(=O)COc3ccccc3C3CCC(CC3)OCC12 (stereo partly shown)
18.1

---

# Test protocol: Part 2 MAD: plasma pharmacokinetics, once daily for 10 days
# Format: in vivo, human
# Condition: human, plasma, oral, 3 mg, Day 10, median; read-out: Tmax
Assay readout: Tmax (h)
Report the figure in h without appending any unit label.

// returns reported Tmax for input CS(=O)(=O)N[C@H]1CCCN2C(=O)COc3ccccc3C3CCC(CC3)OCC12 (stereo partly shown)
1.5

---

# Test protocol: Part 2 MAD: plasma pharmacokinetics, once daily for 10 days
# Type: in vivo, human
# Condition: human, plasma, oral, 3 mg, Day 1, geometric mean
# Description: Part 2 of the study is a MAD evaluation in healthy subjects consisting of 4 cohorts: Cohorts 1-4 received powder-in-capsule or matching placebo. Dose levels were as follows: Blood samples (up to 5 mL per sample) were collected for PK analysis of Compound A and its metabolite(s). The actual time of sample collection was recorded. The PK samples of the subjects randomized to placebo treatment were not analyzed. […]
Assay readout: Cmax (ng/mL)
Number only, in ng/mL; omit the unit.

Which value of Cmax has been reported for CS(=O)(=O)N[C@H]1CCCN2C(=O)COc3ccccc3C3CCC(CC3)OCC12 (stereo partly shown) in the records?
5.6

---

# Test protocol: Part 1 SAD: plasma pharmacokinetics after single oral dose
# Format: in vivo, human
# Condition: human, plasma, oral; 1 mg single dose, geometric mean
Assay readout: AUC(0-t) (ng·h/mL)
Express it in ng·h/mL; write the number only.

Please look up its AUC(0-t): CS(=O)(=O)N[C@H]1CCCN2C(=O)COc3ccccc3C3CCC(CC3)OCC12 (stereo partly shown)
12.3

---

# Test protocol: Part 1 SAD: plasma pharmacokinetics after single oral dose
# Type: in vivo, human
# Condition: human, plasma, oral; 8 mg single dose, geometric mean
# Experimental: There were approximately 8 subjects per cohort. Dose levels were as follows: Blood samples (up to 5 mL per sample) were collected for PK analysis of Compound A and its metabolite(s). The actual time of sample collection was recorded. The PK samples of the subjects randomized to placebo treatment were not analyzed. […] Plasma and urine concentrations of Compound A and its metabolite(s) were measured using a validated high-performance liquid chromatography with tandem mass spectrometry. […]
Assay readout: Cmax (ng/mL)
Give your result in ng/mL as a bare value.

Please look up its Cmax: CS(=O)(=O)N[C@H]1CCCN2C(=O)COc3ccccc3C3CCC(CC3)OCC12 (stereo partly shown)
11.5

---

# Test protocol: Part 2 MAD: plasma pharmacokinetics, once daily for 10 days
# Format: in vivo, human
# Condition: human, plasma, oral, 8 mg, Day 1, median; read-out: Tmax
Assay readout: Tmax (h)
Respond with the bare value in h.

What value of Tmax has been reported for the following molecule? CS(=O)(=O)N[C@H]1CCCN2C(=O)COc3ccccc3C3CCC(CC3)OCC12 (stereo partly shown) [Compound A]
1.75

---

# Test protocol: Part 1 SAD: plasma pharmacokinetics after single oral dose
# Format: in vivo, human
# Condition: human, plasma, oral; 25 mg single dose, geometric mean
Assay readout: AUC(0-t) (ng·h/mL)
Output spec: scalar in ng·h/mL, unitless text.

What value of AUC(0-t) has been reported for the following compound? CS(=O)(=O)N[C@H]1CCCN2C(=O)COc3ccccc3C3CCC(CC3)OCC12 (stereo partly shown) [Compound A]
241

---

# Test protocol: Part 2 MAD: plasma pharmacokinetics, once daily for 10 days
# Type: in vivo, human
# Condition: 25 mg
Assay readout: Accumulation ratio (Day 10/Day 1) Cmax
Could you keep your reply to the number by itself?

Find the recorded Accumulation ratio (Day 10/Day 1) Cmax belonging to CS(=O)(=O)N[C@H]1CCCN2C(=O)COc3ccccc3C3CCC(CC3)OCC12 (stereo partly shown) and report it.
1.32

---

# Test protocol: Part 3 relative bioavailability (tablet vs powder-in-capsule) with food effect: plasma PK, 10 mg
# Assay type: in vivo, human
# Condition: human, plasma, oral, 10 mg, 10 mg Tablet (Fed, low-fat), Cohort 2, N = 10
Assay readout: AUC(0-inf) (µg·h/mL)
Give the quantity in µg·h/mL, number only.

I'd like to know its AUC(0-inf). The molecule in question is CS(=O)(=O)N[C@H]1CCCN2C(=O)COc3ccccc3C3CCC(CC3)OCC12 (stereo partly shown)
0.179

---

# Test protocol: Part 1 SAD: plasma pharmacokinetics after single oral dose
# Assay type: in vivo, human
# Condition: human, plasma, oral; 1 mg single dose, geometric mean, N = 5; read-out: Vz/F
# Experimental: There were approximately 8 subjects per cohort. Dose levels were as follows: Blood samples (up to 5 mL per sample) were collected for PK analysis of Compound A and its metabolite(s). The actual time of sample collection was recorded. The PK samples of the subjects randomized to placebo treatment were not analyzed. […] Plasma and urine concentrations of Compound A and its metabolite(s) were measured using a validated high-performance liquid chromatography with tandem mass spectrometry. […]
Assay readout: Vd/F

Requested read-out: Vd/F. Entry: CS(=O)(=O)N[C@H]1CCCN2C(=O)COc3ccccc3C3CCC(CC3)OCC12 (stereo partly shown) [Compound A]
346 L

---

# Test protocol: Part 3 relative bioavailability (tablet vs powder-in-capsule) with food effect: plasma PK, 10 mg
# Assay type: in vivo, human
# Condition: human, plasma, oral, 10 mg, 10 mg Tablet (Fed, low-fat), Cohort 2
# Description: Part 3 compared the relative bioavailability (RelBA) of Compound A between a tablet formulation and the powder-in-capsule formulation. In addition, the food effect (FE) on the bioavailability of Compound A was assessed following administration of tablet formulation. Dose levels were as follows: The Part 3 (RelBA with FE) evaluation was conducted using a 2-sequence, 3-period crossover study design in approximately 12 subjects. […]
Assay readout: Cmax

Using the record for CS(=O)(=O)N[C@H]1CCCN2C(=O)COc3ccccc3C3CCC(CC3)OCC12 (stereo partly shown) [Compound A] , report its Cmax.
32.1 ng/mL

---

# Test protocol: Part 6 IH: plasma pharmacokinetics, single doses
# Assay type: in vivo, human
# Condition: human, plasma, oral, 12 mg, IH, plasma, median, n = 7; read-out: Tmax
Assay readout: Tmax
Please don't drop the unit; write it after the number.

Which Tmax reading was recorded for the compound CS(=O)(=O)N[C@H]1CCCN2C(=O)COc3ccccc3C3CCC(CC3)OCC12 (stereo partly shown) ?
3 h
